- study-system: T1, CCL18_HUMAN (Homo sapiens, UniProt P55774)
- T1 sequence (P55774 21-89): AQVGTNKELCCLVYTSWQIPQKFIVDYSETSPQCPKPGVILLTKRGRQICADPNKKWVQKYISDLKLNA
- assay-method-text: Biolayer interferometry (BLI) binding

{"molecule": "P1181_AMBMA: tick CKBP, Amblyomma maculatum (protein, listed as Amblyomma maculatum) EEREDDNDYGGGCPFVVLGNGTHAKPAGCSHLCNGAPETLDNIECYNVTEEVAKRMTPDIPYTCWLGWCSKGECKRDNRTEVCYRGSERE", "Kd": "10 nM"}
{"molecule": "P1182_AMBMA: tick CKBP, Amblyomma maculatum (protein, listed as Amblyomma maculatum) EPKDDNDYGGGCPFVVLGNGTHAKPAGCSHLCNGAPETLDNIECYNVTEEVAKRMTPGIPYACWLGWCNKGECKRGNRTEVCYRGSEEE", "Kd": "33 nM"}
{"molecule": "P985_AMBPA: tick CKBP, Amblyomma parvum (protein, listed as Amblyomma parvum) DEESEELGASTDVDYEELDANCTCPAPALTSTRNNKHYPLGCIYNCSSYNCTIPDGTPCYVLTLGEVKEHLQIGSTVPNCTCGLCRNGTCVSNGTVEECFAVEEIEET", "Kd": "430 nM"}
{"molecule": "P546_AMBCA: tick CKBP, Amblyomma cajennense (protein, Amblyomma cajennense) ENTQQEEEDYDYGTDTCPFPVLANKTNKAKFVGCHQKCNGGDQKLTDGTACYVVERKVWDRMTPMLWYSCPLGECKNGVCEDLRKKEECRKGNGEEK", "Kd": "16 nM"}

Data origin, for the record: patent US20200247855A1
